experiment: Kinetic aqueous solubility of the compound
readout-label: solubility kinetic (µM)

CCP(=O)(OC)c1ccc2oc(-c3ccc(F)cc3C(F)F)nc2c1 (centres undefined) : 518
CCP(=O)(OC)c1ccc2oc(-c3ccc(F)cc3)nc2c1 (centres undefined) : 378
CCP(=O)(OC)c1ccc2oc(-c3cncc(C(F)F)c3)nc2c1 (centres undefined) : 440
CCP(=O)(OC)c1ccc2oc(-c3ccc(C(F)F)cc3)nc2c1 (centres undefined) : 530
CCP(=O)(OC)c1ccc2nc(-c3ccccc3C(F)F)oc2c1 (centres undefined) : 446
CCP(=O)(OC)c1ccc2nc(-c3ccc4c(c3)OC(F)(F)O4)oc2c1 (centres undefined) : 574

====

assay: Kinetic aqueous solubility of the compound
readout-label: solubility kinetic

Below are worked cases with known answers.
CCP(=O)(OC)c1ccc2oc(-c3ccccc3C(F)F)nc2c1 (stereo not drawn) : > 250 µM
CCP(=O)(OC)c1ccc2oc(-c3cccc(C(F)F)c3)nc2c1 (stereo not drawn) : > 250 µM

Okay, now this compound:
# input Report solubility kinetic, nothing else, for this compound: CCP(=O)(OC)c1ccc2oc(-c3cccc(OC)c3)nc2c1 (stereo not drawn)
# output > 250 µM
